Hello, the source for this data is patent US20250011363A1, in case you need it.

The entries below are paired with their reported Binding affinity.
Biological target: acetylcholine receptor (Homo sapiens, UniProt P02708)
Sequence (P02708 21-457): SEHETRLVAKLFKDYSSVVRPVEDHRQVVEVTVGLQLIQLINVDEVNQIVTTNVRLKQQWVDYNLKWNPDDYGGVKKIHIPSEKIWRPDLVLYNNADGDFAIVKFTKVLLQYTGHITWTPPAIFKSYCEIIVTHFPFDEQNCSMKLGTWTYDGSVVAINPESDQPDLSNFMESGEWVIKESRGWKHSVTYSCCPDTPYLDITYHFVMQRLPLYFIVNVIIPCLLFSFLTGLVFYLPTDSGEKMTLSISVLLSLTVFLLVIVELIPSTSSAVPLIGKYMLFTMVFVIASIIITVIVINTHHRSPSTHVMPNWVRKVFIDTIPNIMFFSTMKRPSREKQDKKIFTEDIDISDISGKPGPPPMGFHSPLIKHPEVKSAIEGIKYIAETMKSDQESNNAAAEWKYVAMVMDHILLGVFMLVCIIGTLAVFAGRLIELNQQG
Test: SPR binding affinity (RU) of optimized 5mer/6mer/7mer peptides, Examples 6-7
Settings: SPR, Resonance Units; peptides tested at 10 μM; 6mer-1 Bottom sequence
Note: unit Ru is implicit; provide only the numeric part.

These solved cases illustrate the format of a correct answer.
6mer-1-1128 (KKKKPK) ... 39
6mer-1-998 (KRNPVK) ... 41
6mer-1-1061 (RRISIR) ... 41

Given the substance 6mer-1-1030 (KKFCFR) , what is its reported Binding affinity?
30

====

Biological target: acetylcholine receptor (Homo sapiens, UniProt P02708)
Test: SPR binding affinity (RU) of optimized 5mer/6mer/7mer peptides, Examples 6-7
Conditions: SPR, Resonance Units; peptides tested at 10 μM; 6mer-1 Bottom sequence (Table 11)
reported_metric: Binding affinity (Ru)
Note: unit Ru is implicit; provide only the numeric part.

These solved cases illustrate the format of a correct answer.
6mer-1-621 (RRMAGK) ... 30
6mer-1-682 (KKKDIR) ... 30
6mer-1-704 (RRMCER) ... 16

Given the substance 6mer-1-622 (KKCPNR) , what is its reported Binding affinity?
18

Given the substance 6mer-1-750 (KRENIK) , what is its reported Binding affinity?
33

Given the substance 6mer-1-633 (RKIDAK) , what is its reported Binding affinity?
16

Given the substance 6mer-1-681 (KKEWKK) , what is its reported Binding affinity?
32

Given the substance 6mer-1-789 (KRMMPK) , what is its reported Binding affinity?
19

====

Target: acetylcholine receptor (Homo sapiens)
Experiment: SPR binding affinity (RU) of optimized 5mer/6mer/7mer peptides, Examples 6-7
Settings: SPR, peptides tested at 10 μM; 6mer-1 Top sequence (top combinations)
The entries below are paired with their reported Binding affinity.
Note: unit Ru is implicit; provide only the numeric part.

These solved cases illustrate the format of a correct answer.
6mer-1-25 (KKLIRR) ... 135
6mer-1-66 (KKSISR) ... 147
6mer-1-125 (KRRLCR) ... 135
6mer-1-121 (KRRYTK) ... 148
6mer-1-138 (RKVVTR) ... 124

Kindly consider the entry below.
Given the substance 6mer-1-24 (RKVIRK) , what is its reported Binding affinity?
142

====

The entries below are paired with their reported Binding affinity.
Molecular target: acetylcholine receptor (Homo sapiens, UniProt P02708)
Assay: SPR binding affinity (RU) of optimized 5mer/6mer/7mer peptides, Examples 6-7
Settings: 6mer-1 Top sequence; SPR; peptides tested at 10 μM
Note: unit Ru is implicit; provide only the numeric part.

These solved cases illustrate the format of a correct answer.
6mer-1-344 (KKSQCR) ... 125
6mer-1-383 (RKRRTK) ... 148
6mer-1-273 (KKQVSK) ... 137
6mer-1-350 (KKLQTK) ... 153
6mer-1-292 (RKWQTK) ... 122
6mer-1-219 (RRLFCR) ... 121
6mer-1-266 (KKGRLK) ... 144
6mer-1-313 (RRWFCK) ... 148
6mer-1-246 (RRLVSR) ... 122
6mer-1-367 (RKGFSK) ... 154

Which measured Binding affinity belongs to 6mer-1-253 (RRVQLK) , tested on acetylcholine receptor (Homo sapiens, UniProt P02708)?
145

Which measured Binding affinity belongs to 6mer-1-386 (RRSYQK) , tested on acetylcholine receptor (Homo sapiens, UniProt P02708)?
127

Which measured Binding affinity belongs to 6mer-1-346 (KKRIYR) , tested on acetylcholine receptor (Homo sapiens, UniProt P02708)?
123
